test system: NOMO1; assay: cell viability relative to DMSO control; higher = less cytotoxic; settings: RPMI 5 mM glucose + 10% dialyzed FBS; 48 h; 0.569 µM
READOUT: cell viability
// unit must come after the numeric part

Known results for molecules:
CN1CCN(c2ccc([N+](=O)[O-])c3no[n+]([O-])c23)CC1	92.5%
C[C@@]12C[C@@]3(O)O[C@@H](O1)[C@]1(COC(=O)c4ccccc4)[C@H]3C[C@@]12O[C@@H]1O[C@H](CO)[C@@H](O)[C@H](O)[C@H]1O	93.7%
OC[C@H]1OCC(O1)[N@@]2C=CC(N)=NC2=O (stereo partly drawn)	117%

Query block: # cell viability lookup, item `CC(C)=CC[C@@H](O)C/1=C/C(=O)C2=C(O)C=CC(=C2C1=O)O`
Result block: 107%

Query block: # cell viability lookup, item `O=C(Nc1ccccc1-c1cn2c(CN3CCNCC3)csc2n1)c1cnc2ccccc2n1`
Result block: 74.2%

Query block: # cell viability lookup, item `CN(C)C1=CC=C(C=C1)C(C2=CC=C(C=C2)N(C)C)=C/3\C=C/C(/C=C3)=[N+](C)C`
Result block: 11.3%

Query block: # cell viability lookup, item `N[C@H](CSC(c1ccccc1)(c1ccccc1)c1ccccc1)C(=O)O`
Result block: 134%

Query block: # cell viability lookup, item `CN(C)[C@H]\1[C@@H]2C[C@H]3C(=C(O)\[C@]2(O)C(=O)\C(=C1O)C(N)=O)/C(=O)C4=C(O)C=CC=C4[C@@]3(C)O`
Result block: 110%

Query block: # cell viability lookup, item `CN[C@@H]1[C@H](O)[C@H](NC)[C@H]2O[C@@]3(O)C(=O)C[C@@H](C)O[C@H]3O[C@@H]2[C@H]1O`
Result block: 113%

Query block: # cell viability lookup, item `COc1ncc(-c2ccc3nccc(-c4ccnnc4)c3c2)cc1N[S+](=O)([O-])c1ccc(F)cc1F`
Result block: 64%

Query block: # cell viability lookup, item C/C=C1\C2C=C(C)CC1(N)c1ccc(=O)[nH]c1C2 (stereo not drawn)
Result block: 94.1%

Query block: # cell viability lookup, item `Cc1cccc(Nc2nc(-c3ccncc3)cs2)c1`
Result block: 134%

Query block: # cell viability lookup, item `O=C(Nc1cc2cc[nH]c2cn1)c1ccccc1`
Result block: 105%

Query block: # cell viability lookup, item `Nc1ncnc2c1c(-c1cnc3[nH]ccc3c1)nn2C1CCCC1`
Result block: 104%

Query block: # cell viability lookup, item `CNc1nccc(-c2cccnc2Oc2cc(C(=O)Nc3cccc(C(F)(F)F)c3)ccc2C)n1`
Result block: 105%

Query block: # cell viability lookup, item `C=C(C)[C@H]1Cc2c(ccc3c2O[C@@H]2COc4cc(OC)c(OC)cc4[C@@H]2C3=O)O1`
Result block: 87.8%

Query block: # cell viability lookup, item `C=C[C@H]1CN2CC[C@H]1C[C@H]2[C@H](O)c1ccnc2ccc(OC)cc12`
Result block: 113%

Query block: # cell viability lookup, item `O=C(O)c1ccc2c(c1)nc(Nc1cccc(Cl)c1)c1ccncc12`
Result block: 91.9%
